Entry source: paper PMC8554075

system: SARS-CoV-1 receptor-binding domain (SARS-CoV (SARS-CoV-1), isolate not …, UniProt P59594)
measure: binding result

binder: 3475 (antibody, V domains shown) VH: QVQLQESGPGLVKPSETLSLTCTVSGDSISSYHWNWIRQPPGKGLEWIGYIYYSGSTNYNPSLKSRVTISVHTSKNQFSLRLSSVTAADTAVYYCAKEMRRGYSGYDYWDLYAFDIWGQGTMVTVSS VL: DIQLTQSPSFLSASVGDRVTVTCRASQGISSYLAWYQQKPGKAPKLLIYAASTLQSGVPSRFSGSGSGTEFTLTISSLQPEDFATYYCQQLNSYPHTFGQGTKLEIK
result: binds
--
binder: 3476 (antibody, V domains shown) VH: QVQLQESGPGLVKPSETLSLTCAVSGGSISSYYWSWIRQPPGKGLEWIGYIYYSGRTNYNPSLKSRVTISVDTSKNQFSLKLSSVTAADTAVYYCAREMRRGYSGYDDWDLYAFDIWGQGTMVTVSS VL: DIQLTQSPSFLSTSIGDRVTITCRASQGISSYLAWYQQKPGKAPNLLIYAASTLQSGVPSRFSGSGSGTEFTLTISSLQPEDFATYYCQQLNSYPHTFGQGTKLEIK
result: binds
